# System under test: Adenosine receptor A3 (Homo sapiens, UniProt P0DMS8); note: assay procedure not described here
# Sequence (P0DMS8 whole entry): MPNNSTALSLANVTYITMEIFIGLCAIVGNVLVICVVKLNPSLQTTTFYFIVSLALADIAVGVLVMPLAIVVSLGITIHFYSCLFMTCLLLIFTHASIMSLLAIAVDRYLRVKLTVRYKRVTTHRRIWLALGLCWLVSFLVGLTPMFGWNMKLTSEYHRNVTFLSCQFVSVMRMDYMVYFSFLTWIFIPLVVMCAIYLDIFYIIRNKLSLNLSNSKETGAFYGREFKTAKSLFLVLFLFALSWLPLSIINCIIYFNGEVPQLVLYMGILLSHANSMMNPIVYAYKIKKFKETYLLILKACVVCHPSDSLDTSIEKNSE
Quantity: AC50

The examples below pair each entry with its known result.
molecule=Cc1c(N(C)CS(=O)(=O)O)c(=O)n(-c2ccccc2)n1C quantity=AC50 result="> 30 µM"
molecule="CC(=O)O[C@]1(C(C)=O)CC[C@H]2[C@@H]3C=C(Cl)C4=CC(=O)CC[C@]4(C)[C@H]3CC[C@@]21C [CHLORMADINONE ACETATE]" quantity=AC50 result="21 µM"
molecule=OC[C@H]1O[C@@H](c2ccc(Cl)c(Cc3ccc(O[C@H]4CCOC4)cc3)c2)[C@H](O)[C@@H](O)[C@@H]1O quantity=AC50 result="> 30 µM"

Indicate the recorded AC50 value for this molecule: `CC[C@H]1OC(=O)[C@H](C)C(=O)[C@H](C)[C@@H](O[C@@H]2O[C@H](C)C[C@H](N(C)C)[C@H]2O)[C@](C)(OC)C[C@@H](C)C(=O)[C@H](C)[C@H]2N(CCCCn3cnc(-c4cccnc4)c3)C(=O)O[C@]12C`
> 30 µM

Indicate the recorded AC50 value for this molecule: `Cc1cc(NC(=O)C2=C(O)c3ccccc3S(=O)(=O)N2C)no1`
> 30 µM

Indicate the recorded AC50 value for this molecule: O=C(O)CCCCC1CCSS1 (stereo not drawn)
> 30 µM

Indicate the recorded AC50 value for this molecule: CCC(=O)O[C@]1(C(=O)CCl)[C@@H](C)C[C@H]2[C@@H]3C[C@H](F)C4=CC(=O)C=C[C@]4(C)[C@@]3(F)[C@@H](O)C[C@@]21C [HALOBETASOL PROPIONATE]
19.7 µM

Indicate the recorded AC50 value for this molecule: `CNC(=O)Oc1cccc2ccccc12`
> 30 µM

Indicate the recorded AC50 value for this molecule: `CC1=C(/C=C/C(C)=C/C=C/C(C)=C/C(=O)O)C(C)(C)CCC1`
8.21 µM

Indicate the recorded AC50 value for this molecule: `N[C@@H](CS)C(=O)O`
> 30 µM

Indicate the recorded AC50 value for this molecule: CN(C)CCOC(c1ccccc1)c1ccc(Br)cc1 (stereo not drawn) [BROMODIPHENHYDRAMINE]
> 30 µM

Indicate the recorded AC50 value for this molecule: `Cc1ccccc1N1CCN(CCc2nnc3n2CCCC3)CC1`
> 30 µM

Indicate the recorded AC50 value for this molecule: `C=CCN1CC[C@]23CCCC[C@H]2[C@H]1Cc1ccc(O)cc13`
> 30 µM

Indicate the recorded AC50 value for this molecule: `CC[C@H](C)C[C@H](C)CCCCCCCCC(=O)N[C@H]1C[C@@H](O)[C@@H](NCCN)NC(=O)[C@@H]2[C@@H](O)CCN2C(=O)[C@H]([C@H](O)CCN)NC(=O)[C@H]([C@H](O)[C@@H](O)c2ccc(O)cc2)NC(=O)[C@@H]2C[C@@H](O)CN2C(=O)[C@H]([C@@H](C)O)NC1=O`
11.3 µM

Indicate the recorded AC50 value for this molecule: `N#Cc1ccc2c(c1)N(CCCN1CCC(O)CC1)c1ccccc1S2`
> 30 µM

Indicate the recorded AC50 value for this molecule: `C[N+](C)(C)C[C@H](O)CC(=O)[O-]`
> 30 µM

Indicate the recorded AC50 value for this molecule: NC(=O)OCC(O)COc1ccc(Cl)cc1 (stereo not drawn) [CHLORPHENESIN CARBAMATE]
> 30 µM

Indicate the recorded AC50 value for this molecule: CC(C(=O)O)c1ccc(-c2ccccc2)c(F)c1 (stereo not drawn)
> 30 µM

Indicate the recorded AC50 value for this molecule: `CC(=O)Oc1cc(C(F)(F)F)ccc1C(=O)O`
> 30 µM

Indicate the recorded AC50 value for this molecule: `N[C@@H](CO)C(=O)O`
> 30 µM

Indicate the recorded AC50 value for this molecule: C=CCSCC1Nc2cc(Cl)c(S(N)(=O)=O)cc2S(=O)(=O)N1 (stereo not drawn) [ALTHIAZIDE]
> 30 µM

Indicate the recorded AC50 value for this molecule: `CCOC(=O)N1CSC[C@H]1C(=O)O`
> 30 µM

Indicate the recorded AC50 value for this molecule: `CC[C@H](c1ccc(O)cc1)[C@@H](CC)c1ccc(O)cc1`
8.47 µM

Indicate the recorded AC50 value for this molecule: `CCCc1nc(C(C)(C)O)c(C(=O)O)n1Cc1ccc(-c2ccccc2-c2nnn[nH]2)cc1`
> 30 µM

Indicate the recorded AC50 value for this molecule: `CN1C(=O)/C(=N\NC(N)=S)c2ccccc21`
13.9 µM

Indicate the recorded AC50 value for this molecule: `CCOC(=O)[C@H](CCc1ccccc1)N[C@@H](C)C(=O)N(CC(=O)O)C1Cc2ccccc2C1`
> 30 µM

Indicate the recorded AC50 value for this molecule: CN1CCCCC1CCN1c2ccccc2Sc2ccc([S+](C)[O-])cc21 (stereo not drawn)
> 30 µM

Indicate the recorded AC50 value for this molecule: `COc1ccc(CN(CCN(C)C)c2ccccn2)cc1`
> 30 µM

Indicate the recorded AC50 value for this molecule: `O=C(O)COc1ccc(C(=O)c2cccs2)c(Cl)c1Cl`
> 30 µM
